# tested_on: ROCK2 (Homo sapiens)
# Construct: endogenous in cells; host or cells: HAP1 knockout cells
# Sequence (O75116 whole entry): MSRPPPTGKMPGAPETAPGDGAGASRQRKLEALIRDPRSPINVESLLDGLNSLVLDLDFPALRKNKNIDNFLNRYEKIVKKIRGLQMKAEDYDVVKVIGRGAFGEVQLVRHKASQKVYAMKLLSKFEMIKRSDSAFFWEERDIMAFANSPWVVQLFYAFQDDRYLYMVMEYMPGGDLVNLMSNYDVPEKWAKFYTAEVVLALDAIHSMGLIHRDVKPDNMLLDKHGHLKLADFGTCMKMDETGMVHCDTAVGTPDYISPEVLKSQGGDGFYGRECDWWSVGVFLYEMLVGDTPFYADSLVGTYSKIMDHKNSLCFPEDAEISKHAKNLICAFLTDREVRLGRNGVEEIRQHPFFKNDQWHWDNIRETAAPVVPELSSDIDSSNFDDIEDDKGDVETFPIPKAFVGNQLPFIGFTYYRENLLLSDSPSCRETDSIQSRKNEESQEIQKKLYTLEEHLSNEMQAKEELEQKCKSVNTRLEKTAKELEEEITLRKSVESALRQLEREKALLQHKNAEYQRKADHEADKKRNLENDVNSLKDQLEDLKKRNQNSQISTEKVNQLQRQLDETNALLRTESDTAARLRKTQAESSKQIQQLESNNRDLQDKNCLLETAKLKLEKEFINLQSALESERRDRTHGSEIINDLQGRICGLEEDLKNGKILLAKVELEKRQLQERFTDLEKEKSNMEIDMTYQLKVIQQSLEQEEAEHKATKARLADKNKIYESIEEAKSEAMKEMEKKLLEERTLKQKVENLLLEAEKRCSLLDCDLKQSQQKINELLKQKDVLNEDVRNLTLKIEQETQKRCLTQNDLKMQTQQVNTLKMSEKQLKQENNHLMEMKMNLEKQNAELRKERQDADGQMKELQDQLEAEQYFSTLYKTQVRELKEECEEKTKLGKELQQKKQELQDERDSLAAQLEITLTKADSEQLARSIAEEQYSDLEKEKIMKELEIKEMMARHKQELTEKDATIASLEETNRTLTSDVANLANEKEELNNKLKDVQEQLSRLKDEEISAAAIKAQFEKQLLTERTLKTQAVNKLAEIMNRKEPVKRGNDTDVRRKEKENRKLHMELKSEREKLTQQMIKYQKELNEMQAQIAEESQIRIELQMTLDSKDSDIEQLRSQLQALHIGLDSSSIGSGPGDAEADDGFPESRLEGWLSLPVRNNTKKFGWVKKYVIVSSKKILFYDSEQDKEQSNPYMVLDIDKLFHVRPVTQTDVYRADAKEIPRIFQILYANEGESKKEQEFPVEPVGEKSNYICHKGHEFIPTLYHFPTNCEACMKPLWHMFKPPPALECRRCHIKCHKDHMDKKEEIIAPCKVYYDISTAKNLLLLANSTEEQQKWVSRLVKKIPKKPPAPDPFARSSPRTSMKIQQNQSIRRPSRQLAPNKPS
# test_protocol: Cell-Based Assay, ROCK2 (HAP1 knockout cells, phospho-MYPT1 Thr853 ELISA)
# run_conditions: class symbols, read-out: Results from Cell-Based Assay IC50 (μM) ROCK2
Provide the recorded IC50 for the entries that follow.

stdin: Entry under review: Cn1cc(C(=O)Nc2cccc(-c3nsc(Nc4ccc5[nH]ncc5c4Cl)n3)c2)c(C(F)(F)F)n1 . Reported IC50?
stdout: < 1 µM

stdin: Further, for COc1ccc(C(=O)Nc2cc(-c3nsc(Nc4ccc5[nH]ncc5c4Cl)n3)ccn2)cc1 ?
stdout: 1 to 15 µM

stdin: Further, for Cn1cc(-c2nsc(Nc3ccc4[nH]ncc4c3Cl)n2)cc(NC(=O)c2ccccc2F)c1=O ?
stdout: < 1 µM

stdin: Further, for Cc1cc(NC(=O)c2cn(C)cn2)cc(-c2nsc(Nc3ccc4[nH]ncc4c3Cl)n2)n1 ?
stdout: < 1 µM

* * *

# tested_on: GST-tagged human ROCK1 catalytic domain 1-477 (Homo sapiens)
# Construct: human ROCK1 catalytic domain 1-477 from Carna Biosciences (cat #01-109); purchased Carna Biosciences 01-109; host or cells: baculovirus expression system
# Sequence (Q13464 1-477): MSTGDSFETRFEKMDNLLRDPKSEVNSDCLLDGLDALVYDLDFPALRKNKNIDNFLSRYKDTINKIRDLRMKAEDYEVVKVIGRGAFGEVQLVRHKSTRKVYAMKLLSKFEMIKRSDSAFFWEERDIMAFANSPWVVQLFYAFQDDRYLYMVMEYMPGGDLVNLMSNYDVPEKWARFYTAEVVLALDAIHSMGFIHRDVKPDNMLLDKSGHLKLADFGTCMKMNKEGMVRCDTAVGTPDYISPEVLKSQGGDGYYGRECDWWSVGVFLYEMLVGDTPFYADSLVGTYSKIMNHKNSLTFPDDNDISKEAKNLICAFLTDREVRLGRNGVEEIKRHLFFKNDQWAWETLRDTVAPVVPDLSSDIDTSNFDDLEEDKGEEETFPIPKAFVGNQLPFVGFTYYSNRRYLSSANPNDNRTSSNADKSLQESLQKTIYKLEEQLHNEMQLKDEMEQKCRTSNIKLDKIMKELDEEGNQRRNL
# test_protocol: Isolated Enzyme Assay, ROCK1 (LANCE Ultra ULight-CREBtide FRET)
# Type: biochemical
# run_conditions: isolated enzyme; 30 μM highest concentration tested; read-out: Results from Isolated Enzyme Assay IC50 (μM) ROCK1
observed_property: IC50

stdin: Entry under review: Cc1n[nH]c2ccc(Nc3nc(-c4cccc(NC(=O)c5ccnn5C)c4)ns3)cc12 . Reported IC50?
stdout: > 30 µM

stdin: Further, for Cc1ccncc1C(=O)Nc1cccc(-c2nsc(Nc3ccc4[nH]ncc4c3Cl)n2)c1 ?
stdout: > 30 µM

stdin: Further, for O=C(Nc1cccc(-c2nsc(Nc3ccc4[nH]ncc4c3Cl)n2)c1)c1cncs1 ?
stdout: < 1 µM

stdin: Further, for Cc1n[nH]c2ccc(Nc3nc(-c4ccnc(NC(=O)c5ccnn5C)c4)ns3)cc12 ?
stdout: > 30 µM

stdin: Further, for Cc1n[nH]c2ccc(Nc3nc(-c4cncc(NC(=O)c5ccnn5C)c4)ns3)cc12 ?
stdout: > 30 µM

stdin: Further, for O=C(Nc1cccc(-c2nsc(Nc3ccc4[nH]ncc4c3Cl)n2)c1)c1cnc[nH]1 ?
stdout: < 1 µM

* * *

# tested_on: GST-tagged human ROCK2 catalytic domain 1-553 (Homo sapiens, UniProt O75116)
# Construct: GST-tagged human ROCK2 catalytic domain 1-553 from Carna Biosciences (Cat #01-110); purchased Carna Biosciences 01-110; host or cells: baculovirus expression system
# Sequence (O75116 1-553): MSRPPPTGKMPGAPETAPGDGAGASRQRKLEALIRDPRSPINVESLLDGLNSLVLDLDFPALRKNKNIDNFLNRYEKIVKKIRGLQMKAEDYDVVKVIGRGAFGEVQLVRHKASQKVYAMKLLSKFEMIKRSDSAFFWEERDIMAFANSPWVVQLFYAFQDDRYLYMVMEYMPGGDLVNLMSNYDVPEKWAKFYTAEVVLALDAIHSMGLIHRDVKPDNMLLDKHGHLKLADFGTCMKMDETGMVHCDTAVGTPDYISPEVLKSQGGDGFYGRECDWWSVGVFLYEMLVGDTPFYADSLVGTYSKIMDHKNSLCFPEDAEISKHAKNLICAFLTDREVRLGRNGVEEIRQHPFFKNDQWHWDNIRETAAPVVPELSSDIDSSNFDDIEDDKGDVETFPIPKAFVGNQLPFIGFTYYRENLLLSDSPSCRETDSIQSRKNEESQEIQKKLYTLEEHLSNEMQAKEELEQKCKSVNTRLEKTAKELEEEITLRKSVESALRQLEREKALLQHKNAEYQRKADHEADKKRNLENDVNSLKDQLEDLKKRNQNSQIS
# test_protocol: Isolated Enzyme Assay, ROCK2 (LANCE Ultra ULight-CREBtide FRET)
# Format: biochemical
# run_conditions: isolated enzyme assay; 30 μM highest concentration tested; read-out: Results from Isolated Enzyme Assay IC50 (μM) ROCK2
observed_property: IC50

stdin: GST-tagged human ROCK2 catalytic domain 1-553 (Homo sapiens, UniProt O75116) / IC50 / CC1(C)CN(c2cccc(-c3nsc(Nc4ccc5[nH]ncc5c4Br)n3)c2)C(=O)O1 [IV-35] : value?
stdout: < 1 µM

stdin: Further, for O=C(Nc1cncc(-c2nsc(Nc3ccc4[nH]ncc4c3Cl)n2)c1)c1cncs1 [IV-18] ?
stdout: < 1 µM

stdin: Further, for CC(C)NC(=O)COc1cccc(-c2nsc(Nc3ccc4[nH]ncc4c3Cl)n2)c1 [IV-9] ?
stdout: < 1 µM

Every entry's value here was drawn from patent US10556898B2.
